B1: PI4K2A (parent)
chain: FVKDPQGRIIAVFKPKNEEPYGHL

Variants of: B1
Experiment: protein stability index of a GFP-peptide fusion (GPS, HEK-293T) (PSI 1-6); higher = more stable;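 note: lentivirally expressed fusions sorted by FACS into six bins by GFP to DsRed ratio, PSI derived from sequencing read proportions per bin multiplied by bin number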
Settings: c terminus: a fixed tail appended
Use 2 as the dividing line for protein stability index, with the line itself on the true (1) side and lower values as false (0).

# input protein stability index >= 2 for FVKDPQGRIIAVFKPKNEENYGHL [P20N] ?
# output false (0)

# input protein stability index >= 2 for FRKDPQGRIIAVFKPKNEEPYGHL [V2R] ?
# output true (1)
